Below, each entry is listed with its recorded growth.
# System: MCF7 breast
# Assay: NCI-60 one-dose screen, 48 h (100 = growth as untreated, 0 = no growth, -100 = all killed)
# Condition: 10 µM
The panel holds about 83,000 compounds, 20% with a hit somewhere; the sample as a whole holds those more often.
Observable: growth (%)

molecule=COc1ccc(CN2[C@@H](C(=O)NCc3ccc(C(=O)NO)cc3)Cc3c([nH]c4ccccc34)[C@@H]2C)cc1 tgt="MCF7 breast" observable=growth result=15.8
molecule=O=C(Nc1ccc(OCc2ccccc2)cc1)Nc1ccc(Cl)c(C(F)(F)F)c1 tgt="MCF7 breast" observable=growth result=2.34
molecule=CONC[C@]1(C)C=C2C(=O)[C@](C)(O)C3(CC3)C(C)=C2[C@H]1O tgt="MCF7 breast" observable=growth result=-36.3
molecule=COc1ccsc1/C=N/NC(=O)c1[nH]c2ccc(Br)cc2c1-c1ccccc1 tgt="MCF7 breast" observable=growth result=1.13
molecule=O=C(CSc1nnc(-c2ccc3nc(-c4ccccc4)[nH]c3c2)o1)Nc1ccc(Cl)cc1 tgt="MCF7 breast" observable=growth result=16.3
molecule=O=c1nc(-c2ccccc2)cc(-c2cc3ccccc3nc2Cl)[nH]1 tgt="MCF7 breast" observable=growth result=4.69
molecule=COc1ccc2[nH]c(O)c(N=NC(=O)c3cc(-c4ccc(C)cc4)nc4ccccc34)c2c1 tgt="MCF7 breast" observable=growth result=61
molecule=CCOC(=O)c1sc(N/N=C(\C)c2ccc3c(c2)Nc2ccccc2S3)nc1C tgt="MCF7 breast" observable=growth result=-2.84
molecule=O=C(CSc1nnc(-c2c[nH]c3ccccc23)n1-c1ccccc1)c1ccccc1 tgt="MCF7 breast" observable=growth result=36.2
molecule=O=c1c2ccccc2nc(COc2ccccc2)n1/N=C/c1ccc(N2CCCC2)cc1 tgt="MCF7 breast" observable=growth result=87.6
molecule=COc1ccc(CN2[C@H](C(=O)NCCCCCCC(=O)NO)Cc3c([nH]c4ccccc34)[C@H]2C2CC2)cc1 tgt="MCF7 breast" observable=growth result=6.39
molecule="CC1=C(c2cc(-c3ccc(Cl)cc3)c(C#N)c(N)n2)C(c2ccccc2)NC(=S)N1 (stereo not drawn)" tgt="MCF7 breast" observable=growth result=31.6
molecule=Cc1nc(Nc2nc(C)c3ccc(OCCN4CCOCC4)cc3n2)[nH]c(=O)c1C tgt="MCF7 breast" observable=growth result=0.281
molecule=COc1ccc(CN2[C@@H](C(=O)NCc3ccc(C(=O)NO)cc3)Cc3c([nH]c4ccccc34)[C@@H]2C2CC2)cc1 tgt="MCF7 breast" observable=growth result=14.1
molecule=Cc1cc(=O)oc2cc(OCCCCOc3ccc(/C=C/C(=O)Nc4ccc(F)c(Cl)c4)cc3)ccc12 tgt="MCF7 breast" observable=growth result=77.8
molecule="O=C(c1ccc(O)cc1)C1[C@H](c2ccc(Br)cc2)[C@@H](c2ccccc2)NC12C(=O)Nc1ccc(Br)cc12 (stereo partly drawn)" tgt="MCF7 breast" observable=growth result=-18
molecule=O=C(Nc1ccc(Cl)c(C(F)(F)F)c1)c1cncc(C#Cc2cnc3ccc(N4CCOCC4)nn23)c1 tgt="MCF7 breast" observable=growth result=-13.3
molecule=Nc1cccnc1/C=N/NC(=S)NCCNC(=O)c1ccc(-n2nc(-c3ccccc3O)nc2-c2ccccc2O)cc1 tgt="MCF7 breast" observable=growth result=5.17

====

# Test system: HOP-62 NSCLC
# Assay: NCI-60 one-dose screen, 48 h
# Condition: 10 µM
# Procedure: Growth inhibition of the HOP-62 human Non-Small Cell Lung tumor cell line is measured as a screen for anti-cancer activity. Cells are grown in 96 well plates and exposed to the test compound for 48 hours. Compounds are tested at a single concentration, which is 10^-5 M for most compounds. The reported endpoint is percent growth (GI% or GIPRCNT), where numbers from 0 - 100% represent growth inhibition, and numbers from -100% - 0 represent cell death. […]
This is part of a sample that, as a whole, favours compounds with a hit. Of some 83,000 tested, about 20% had one in any assay. Calls of active or inactive are those of the source. The calls were made as follows: active = growth percent below 10; inactive = the rest.
Possible outcomes: active, inactive

compound=N#Cc1ccc(-c2nn(-c3ccc(C(=O)O)cc3)cc2CNc2cc(Cl)cc(Cl)c2)cc1 classification=inactive
compound=CN1CCCN(Cc2ccc(C(=O)Nc3cccc(Nc4ccc5cc(O)ccc5n4)c3)cc2C(F)(F)F)CC1 classification=inactive
compound="O=C1CCC(N2Cc3c(NCc4ccc(-c5ccccc5)cc4)cccc3C2=O)C(=O)N1 (centres undefined)" classification=inactive
compound=O/N=C(\CSc1nnc(-c2c[nH]c3ccccc23)n1-c1ccccc1)c1ccc(Cl)cc1 classification=active
compound=COc1ccc(-c2cc(C(=O)N=Nc3c(O)[nH]c4ccc(F)cc34)c3ccccc3n2)cc1 classification=inactive
compound=O=c1cc(-c2ccccc2)oc2cc(OCCCNCc3ccccc3)cc(O)c12 classification=inactive
compound=CC(C)NC(=O)c1cc(-c2ccc(NC(=O)Nc3ccc(N4CCN(C)CC4)c(C(F)(F)F)c3)cc2)nc2cccnc12 classification=active
compound=O=C(CNc1nc(-c2ccccc2)cs1)Nc1ccc(Cl)cc1[N+](=O)[O-] classification=active
compound=CC(=O)Oc1ccccc1C(=O)Oc1ccc(C(=O)/C=C/c2ccncc2)cc1 classification=inactive

====

# Test system: MALME-3M melanoma
# Assay: NCI-60 one-dose screen, 48 h (100 = growth as untreated, 0 = no growth, -100 = all killed)
# Condition: 10 µM
About 83,000 compounds went through this panel and 20% of them were active in at least one assay; those are over-represented in the sample as a whole.
Observable: growth (%)

compound=COc1ccc2nc(Cl)c(-c3cc(-c4ccccc4)nc(=S)[nH]3)cc2c1 observable=growth unit_label=% result=45.3
compound=Cc1ccn2c(C(=O)c3ccccc3)cc(-c3cc(-c4ccc(N(C)C)cc4)c(C#N)c(N)n3)c2c1 observable=growth unit_label=% result=63.6
compound=CS(=O)(=O)Nc1ccc(-c2ccc3c(c2)ncn3-c2ccc(NC(=O)Nc3ccc(Cl)c(C(F)(F)F)c3)cc2)cc1 observable=growth unit_label=% result=-80.8
compound=O=C(NCCCCC(c1ccc(F)cc1)c1ccc(F)cc1)NCCCc1cccnc1 observable=growth unit_label=% result=-13
compound=CCOC(=O)c1c(CSc2ccccc2)n(C)c2cc(CN(C)C)c(O)c(CN(C)C)c12 observable=growth unit_label=% result=-15.3
compound=Cn1c(O)c(N=Nc2nc(-c3cc4ccccc4oc3=O)cs2)c2cc(Br)ccc21 observable=growth unit_label=% result=49.8
compound=O=C(NO)c1ccc(Cn2ccc3c(NCc4ccccc4)ncnc32)cc1 observable=growth unit_label=% result=-5.08
compound=N#Cc1c(NC(=O)c2ccc(C(F)(F)F)c(Cl)c2)sc2c1CCC(=O)C2 observable=growth unit_label=% result=-56.9
compound=C/C(=N\NC(N)=S)c1ccc(Nc2nc(SC(C)C)nc(-c3ccccc3)c2C#N)cc1 observable=growth unit_label=% result=55.7
compound=O=C(NO)c1ccc(CN2CCN(c3nc(-c4ccccc4)c4ccccc4n3)CC2)cc1 observable=growth unit_label=% result=11.2
compound=COc1ccc(NC(=O)Nc2ccc(OCC(=O)N=Nc3c(O)[nH]c4ccc([N+](=O)[O-])cc34)cc2)cc1 observable=growth unit_label=% result=94.5
compound=Cc1cc(C)cc(Oc2cccc(-c3c(C)nnn3C3CCN(CCN(C)C)CC3)n2)c1 observable=growth unit_label=% result=-40.5
compound=CN1CCc2c(sc3ncnc(N/N=C/c4cn(-c5ccccc5)nc4-c4ccc(Br)cc4)c23)C1 observable=growth unit_label=% result=29.5
compound=CCCCCCCCCCCCCCCCCCCC(=O)NCCc1c[nH]c2ccc(O)cc12 observable=growth unit_label=% result=120
compound=CCOc1ccc(Nc2nc3ccccc3nc2Nc2ccc(OCC)cc2)cc1 observable=growth unit_label=% result=83.7
compound=O=C(NCCCCCCCCCC[P+](c1ccccc1)(c1ccccc1)c1ccccc1)c1ccc(-n2nc(-c3ccccc3O)nc2-c2ccccc2O)cc1 observable=growth unit_label=% result=-94
compound=O=C(c1ccc(-n2c(=O)[nH]c3ccccc3c2=O)cc1)N1CCOCC1 observable=growth unit_label=% result=97.5
compound=CN1CCN(c2ccc(C(=O)/C=C/c3ccc(C#N)cc3)cc2)CC1 observable=growth unit_label=% result=90.4
compound="O=C1CCC(N2Cc3c(C#CCCCNC(=O)c4ccc(NC(=O)[C@@H]5NC6(CCCCC6)[C@@]6(C(=O)Nc7cc(Cl)ccc76)[C@H]5c5cccc(Cl)c5F)cc4)cccc3C2=O)C(=O)N1 (stereo partly specified)" observable=growth unit_label=% result=17.7
compound=O=c1[nH]n(C(=S)N/N=C/c2ccc(F)cc2)c(=O)c2ccccc12 observable=growth unit_label=% result=80.4
compound=COc1cc(NC(=O)CSc2nnc(-c3ccc4nc(-c5ccc(Cl)cc5)[nH]c4c3)o2)cc(OC)c1OC observable=growth unit_label=% result=66.5
compound=COC(=O)C[C@](O)(CCCC(C)(C)O)C(=O)O[C@H]1C(OC)=C[C@@]23CCC(=O)N2CCc2cc4c(cc2[C@@H]13)OCO4 observable=growth unit_label=% result=81.5
compound="CCOC(=O)C1=C(N)N(c2ccccc2)C2=C(C(=O)CC(C)(C)C2)C1c1ccccc1OC (stereo unspecified)" observable=growth unit_label=% result=91.3
compound="COc1ccc(C2N(c3ccc(Br)cc3)N=C(C(C)=O)N2[C@H]2[C@H](OC(C)=O)O[C@H](COC(C)=O)[C@@H](OC(C)=O)[C@@H]2OC(C)=O)cc1 (stereo partly specified)" observable=growth unit_label=% result=93.4
compound=COc1cccc(-c2ccc(/C=N/NC(=O)c3[nH]c4ccc(Br)cc4c3-c3ccccc3)o2)c1 observable=growth unit_label=% result=47.5
compound=CO[C@@H]1CSS[C@H]1Cn1nc(-c2ccc(Oc3ccccc3)cc2)c2c(N)ncnc21 observable=growth unit_label=% result=63.4
compound=O=C(CNc1nc(-c2ccccc2)cs1)Nc1ccc([N+](=O)[O-])cc1Cl observable=growth unit_label=% result=24
compound=Cc1ccc(-c2nc(Nc3ccccc3C(=O)O)c3ccccc3n2)cc1 observable=growth unit_label=% result=19.6
compound=Clc1ccc(/C=N/Nc2ncnc3sc4c(c23)CCN(Cc2ccccc2)C4)cc1 observable=growth unit_label=% result=-66.9
compound=Cc1cc(C)nc(/N=C(\N)Nc2ccc(S(=O)(=O)Nc3nc(C)cc(C)n3)cc2)n1 observable=growth unit_label=% result=110
compound=O=C(Nc1ccncc1)c1ccc(-n2c(=O)[nH]c3ccccc3c2=O)cc1 observable=growth unit_label=% result=96.3
compound=O=C(CNc1nc(-c2ccccc2)cs1)Nc1cccc([N+](=O)[O-])c1 observable=growth unit_label=% result=-90.5
compound=CN1CCN(c2ccc(Nc3nc(NCCCNC(=O)c4ccc(F)cc4)c4sccc4n3)cc2)CC1 observable=growth unit_label=% result=-72.3
compound=COC[C@@H](CC(C)C)N=C1N/C(=C\c2ccc3ncsc3c2)C(=O)N1C observable=growth unit_label=% result=7.51
compound=O=c1c2ccccc2nc(COc2ccccc2)n1/N=C/c1ccc(N2CCCC2)cc1 observable=growth unit_label=% result=115
compound=CN(C)c1nc(NCCNS(=O)(=O)c2ccc(C(=O)/C=C/c3ccccc3)cc2)nc(Nc2ccc(F)cc2)n1 observable=growth unit_label=% result=36.5
